Source of measurements: PubChem BioAssay AID651684

System: Pro5-aDG cells, alpha-DG glycosylation, IIH6 AlphaLISA
Assay: alpha-DG glycosylation activators, EC50, dose response, Pro5-aDG cells, AlphaLISA (AID 651684)
Active and inactive are the calls of the source.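 How the source made its calls: active means any single replicate giving an EC50 below 30 µM; inactive means the rest.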
Listed below: EC50 values for each entry.

- Molecule: "Cn1c(=N)n(CC(=O)c2ccc(Br)cc2)c2ccccc21"
  EC50: "42.7 µM (inactive)"
- Molecule: "Cc1cncn1CCc1nc2c3ccccc3nc(SCC(=O)Nc3cccc(Cl)c3)n2n1"
  EC50: "> 80 µM (inactive)"
- Molecule: "CC(C)N1CCN(c2ccc(OCC3COC(Cn4cncn4)(c4ccc(Cl)cc4Cl)O3)cc2)CC1 (centres undefined)"
  EC50: "9.77 µM"
- Molecule: "CC(C)c1ccc(NC(=O)C2Cc3c(-c4ccc(Cl)cc4)ccnc3O2)cc1 (centres undefined)"
  EC50: "3.98 µM"

====

Tested on: Pro5-aDG cells, alpha-DG glycosylation, IIH6 AlphaLISA
Test: alpha-DG glycosylation activators, EC50, dose response, Pro5-aDG cells, AlphaLISA (AID 651684)
Calls of active or inactive are those of the source.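 The calls were made as follows: active = any single replicate giving an EC50 below 30 µM; inactive = the rest.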
Readout type: EC50

- Molecule: "O=C1C(Cl)=C(NCc2ccco2)C(=O)c2ccccc21"
  Target system: "Pro5-aDG cells, alpha-DG glycosylation, IIH6 AlphaLISA"
  Assay value: "4.97 µM"
- Molecule: "CCc1ccc(C2c3[nH]c4ccccc4c3CCN2C(=O)CN2CCN(CC)CC2)cc1 (stereo not given)"
  Target system: "Pro5-aDG cells, alpha-DG glycosylation, IIH6 AlphaLISA"
  Assay value: "> 80 µM (inactive)"
- Molecule: "N=c1n(CCN2CCOCC2)c2ccccc2n1CC(=O)c1ccc(Cl)c(Cl)c1"
  Target system: "Pro5-aDG cells, alpha-DG glycosylation, IIH6 AlphaLISA"
  Assay value: "47.1 µM (inactive)"
- Molecule: "Cc1cccc(/C=C2/Sc3ccc(C(=O)NCCN4CCCC4)cc3NC2=O)c1"
  Target system: "Pro5-aDG cells, alpha-DG glycosylation, IIH6 AlphaLISA"
  Assay value: "> 80 µM (inactive)"
- Molecule: "CCc1nc2ccc(C(=O)NC3CCN(Cc4ccccc4)CC3)cn2c1N(C)Cc1cc2ccccc2s1"
  Target system: "Pro5-aDG cells, alpha-DG glycosylation, IIH6 AlphaLISA"
  Assay value: "6.07 µM"
- Molecule: "CCOC(=O)N/N=C\\c1ccc([N+](=O)[O-])s1"
  Target system: "Pro5-aDG cells, alpha-DG glycosylation, IIH6 AlphaLISA"
  Assay value: "12.3 µM"
- Molecule: "CN1CCN(S(=O)(=O)c2cccc(C(=O)Nc3sccc3C#N)c2)CC1"
  Target system: "Pro5-aDG cells, alpha-DG glycosylation, IIH6 AlphaLISA"
  Assay value: "37.6 µM"
- Molecule: "CCCCN1CCc2c1nc1ccc(Br)cc1c2N"
  Target system: "Pro5-aDG cells, alpha-DG glycosylation, IIH6 AlphaLISA"
  Assay value: "> 80 µM (inactive)"
- Molecule: "CC(C)OC(=O)CN1C(=O)C(=O)c2ccccc21"
  Target system: "Pro5-aDG cells, alpha-DG glycosylation, IIH6 AlphaLISA"
  Assay value: "6.56 µM"
- Molecule: "Cc1cccc(NC(=S)N(CCCN2CCCC2)Cc2cccn2Cc2ccc(Cl)cc2)c1"
  Target system: "Pro5-aDG cells, alpha-DG glycosylation, IIH6 AlphaLISA"
  Assay value: "> 80 µM (inactive)"
- Molecule: "N#Cc1ccsc1NC(=O)c1cccc(-n2cnnn2)c1"
  Target system: "Pro5-aDG cells, alpha-DG glycosylation, IIH6 AlphaLISA"
  Assay value: "20.7 µM"
- Molecule: "CCc1ccc(C(CNC(=O)c2ccc3c(=O)n(-c4ccccc4F)c(=S)[nH]c3c2)N(C)C)cc1 (stereo not given)"
  Target system: "Pro5-aDG cells, alpha-DG glycosylation, IIH6 AlphaLISA"
  Assay value: "1.9 µM"
- Molecule: "CCCCN(C)CCNC(=O)c1cc(-c2cccnc2)nc2ccc(S(=O)(=O)N3CCC(C)CC3)cc12"
  Target system: "Pro5-aDG cells, alpha-DG glycosylation, IIH6 AlphaLISA"
  Assay value: "> 80 µM (inactive)"
- Molecule: "C/C(=N/NC(=O)C(O)(c1ccccc1)c1ccccc1)c1ccc([N+](=O)[O-])o1"
  Target system: "Pro5-aDG cells, alpha-DG glycosylation, IIH6 AlphaLISA"
  Assay value: "12.7 µM"
- Molecule: "CC(=O)Oc1c(Cl)cc(N(C(C)=O)S(=O)(=O)c2ccccc2)c2ccccc12"
  Target system: "Pro5-aDG cells, alpha-DG glycosylation, IIH6 AlphaLISA"
  Assay value: "3.17 µM"
